Tested on: SNB-19 CNS
Procedure summary: NCI tumour cell line growth inhibition, 48 h; in the data active = GI50 below about 0.43 µM; inactive = the rest
Hi! Could you answer with just one of these? active, inactive

{"columns": ["Compound", "Category label"],
 "data": [
  ["COC(=O)[C@H]1CCCN1C(=O)[C@H]1CCCN1C(=O)[C@H](Cc1c[nH]c2ccccc12)NC(=S)Nc1cc(C(F)(F)F)cc(C(F)(F)F)c1", "inactive"],
  ["C#CCOc1ccc2ncnc(Nc3ccc(NC(=O)C=C)cc3)c2c1", "inactive"],
  ["CC(=O)[O][Hg][c]1c(C)c(C)cc(C)c1C", "inactive"]
]}

Now, please, on to the next compound.
Q. Kindly provide the recorded test outcome for the following compound: COc1ccc(/C=C/C(=O)c2sc(-n3nc(-c4ccccc4)cc3-c3ccccc3)nc2C)cc1
A. inactive

* * *

What TGI was measured for each of the following?
System: SK-MEL-28 melanoma
Procedure summary: NCI tumour cell line growth inhibition, 48 h

Consider the following illustrative entries.
{"columns": ["Compound", "TGI"],
 "data": [
  ["Cn1nc(-c2ccccc2)c2c(/C=C/c3ccccc3)onc2c1=O", "> 100 µM"],
  ["Cc1cc(Cl)nc(N(CCCNc2ccnc3cc(Cl)ccc23)Cc2ccco2)n1", "6.37 µM"],
  ["COc1cc(C2c3cc4c(cc3OC(NCCO)C2C)OCO4)cc(OC)c1OC (stereo not drawn)", "> 100 µM"]
]}

Below are 4 compounds. Give each one its TGI.
1. O=[N+]([O-])c1cccc(C2CC(c3ccccc3)=Nc3ccccc3S2)c1 (stereo not drawn)
2. CC(=O)NNc1nc(C)c(C(=O)NNC(=O)C(=O)Nc2ccc(Cl)cc2Cl)s1
3. Nc1ncnc2c1ncn2C1OC(CO)C(O)C1N (stereo not drawn)
4. CN1CSC(=S)N(Cc2ccccc2)C1

A.
1: 34.2 µM; 2: > 100 µM; 3: > 100 µM; 4: 41 µM

// each compound listed below needs its TGI
1. O=C(Nc1ccccc1)c1cc(S(=O)(=O)N2CCNNC2=O)c(S)cc1Cl
2. O=C(CN1C(=O)S/C(=C\C(Cl)=C\c2ccccc2)C1=O)NC1C=CS(=O)(=O)C1 (stereo not drawn)
3. CNc1ncc(-c2nnnn2-c2ccccc2)c(CN(C)C)n1
4. CN(CC(=O)N(Cc1ccc(C2CCCCC2)cc1)c1ccc(C(=O)O)cc1)S(=O)(=O)c1c(F)c(F)c(F)c(F)c1F
5. O=C(CC(Cl)=C(Cl)Cl)c1cccc(Cl)c1Cl

A.
1. > 100 µM
2. 3.9 µM
3. > 100 µM
4. 3.03 µM
5. > 100 µM

Give one value of TGI per listed compound.
1. COC(=O)c1ccc(NC(=O)Oc2ccc(N(CCCl)CCCl)cc2)cc1
2. CC(SC(=O)Nc1ccc(N=Nc2ccccc2)cc1)C(=O)O (stereo not drawn)
3. C=CCOCn1cc(C)c(=O)[nH]c1=O

A.
1: > 100 µM; 2: > 100 µM; 3: > 100 µM

Could you tell me TGI for each of these compounds? They are listed below.
1. O=c1cnn(CCOCP(=O)(O)O)c(=O)[nH]1
2. CC1=C(Nc2ccc(N3CCN(C)CC3)cc2)C(=O)c2cncnc2C1=O
3. CCOC(=O)C1=COC(C)(CCc2ccccc2)CC1=O (stereo not drawn)
4. CC(C)C1N(C)c2ccc(Cl)cc2[C@H]2c3ccccc3CCN12 (stereo partly drawn)
5. CC(C)(C)C(C#N)(C#N)c1ccc(C(C#N)(C#N)C(C)(C)C)nn1
6. CCCCCCCCCCCC[n+]1ccc2ccccc2c1
7. Cc1c(/C=N/N(C)C)oc2c1cc(O)c1ncccc12

A.
> 100 µM
43.3 µM
> 100 µM
> 100 µM
> 100 µM
3 µM
> 100 µM

Q. // output TGI; input c1cc2c(cn1)Nc1ccncc1S2 ; system SK-MEL-28 melanoma
A. > 100 µM

* * *

Tested on: HOP-18 NSCLC
Procedure summary: NCI tumour cell line growth inhibition, 48 h
Exercise: for every item that follows, state its recorded TGI.

Answer for every listed entry: what is its TGI? The entries follow.
1. O=c1[nH]cnc2c1nnn2CCCCCCCCCCCCn1nnc2c(=O)[nH]cnc21
2. CN(c1ccccc1)c1c(Cl)c(=O)oc2c1ccc1occc12
3. O=C(Nc1nc2c(ncn2C2OC(CO)C(O)C2O)c(=O)[nH]1)c1ccccc1 (stereo not drawn)

A.
1. > 100 µM
2. > 100 µM
3. > 100 µM

* * *

System: EKVX NSCLC
Procedure summary: NCI tumour cell line growth inhibition, 48 h
Can you tell me GI50 for the items I'm about to list?

Consider the following illustrative entries.
{"columns": ["Compound", "Reported"],
 "data": [
  ["CCC(=O)c1c(C(F)(F)F)n([O-])c2cc(F)c(F)cc2[n+]1=O", "2190 nM"],
  ["CN1C(=O)C2(c3ccccc31)N(c1ccc(Cl)cc1)C(=O)C2(c1ccccc1)c1ccccc1 (centres undefined)", "53300 nM"],
  ["O=C(CC(Cl)=C(Cl)Cl)c1cccc(Cl)c1Cl", "57700 nM"]
]}

List reported GI50 for each of these compounds:
1. Cn1ncc(Cl)c1-c1cc(C(=O)N[C@H](CN)Cc2ccc(F)c(F)c2)oc1Cl
2. O=C(Nc1nc2ccccc2s1)Nc1ccc([N+](=O)[O-])cc1Cl
3. CC(=O)[O][Hg][c]1c(C)c(C)cc(C)c1C
4. O=C1/C=C/[C@@H](O)[C@@H]2C[C@@H](O)C[C@H]2/C=C/CCC[C@H](C(F)(F)F)O1

A.
["2770 nM", "11000 nM", "1250 nM", "1330 nM"]

Give GI50 for each of the items listed below.
1. O=C1Cc2cc(C(=O)NC3C[C@H]4CC[C@@H](C3)N4S(=O)(=O)CC3CCN(CCCC(F)(F)F)CC3)c(Cl)cc2N1 (some centres undefined)
2. CN1CCN(CCCOc2cccc3nc(Nc4ccc(Cl)c(C(F)(F)F)c4)ccc23)CC1

A.
> 100000 nM
1820 nM

* * *

Give measured TGI for each item. Keep answers brief.
System: IGROV1 ovarian
Procedure summary: NCI tumour cell line growth inhibition, 48 h
One number for each entry, in µM.

Provide each entry's TGI from the list below.
1. COC(=O)CSSCc1ccc([N+](=O)[O-])cc1
2. O=C1NC(=NCCCc2ccccc2)S/C1=C\c1ccc2ncccc2c1
3. COc1cc(C2c3cc4c(cc3OC(N3CCNCC3)C2C)OCO4)cc(OC)c1OC (configuration not stated)
4. CCCCCCCCCCCC[n+]1ccc2ccccc2c1
5. CN(C)/N=C1\CC(c2ccccc2)C(C#N)(C#N)C1(C#N)C#N (configuration not stated)

A.
1: 17.1; 2: 14.1; 3: 17.5; 4: 1.85; 5: 45.3

Quick request: TGI for each listed item, please.
1. CC(=O)[O][Hg][c]1c(C)c(C)cc(C)c1C
2. NS(=O)(=O)OCCCCCCCOS(N)(=O)=O

A.
1. 2.37
2. 937

* * *

Assignment: determine reported GI50 for the given molecules.
Tested on: HS 578T breast
Procedure summary: NCI tumour cell line growth inhibition, 48 h

Sample answers from the record:
{"columns": ["Molecule", "Target under test", "Parameter", "Reported"],
 "data": [
  ["CCC(=O)c1c(C(F)(F)F)n([O-])c2cc(F)c(F)cc2[n+]1=O", "HS 578T breast", "GI50", "1.79 µM"],
  ["CO[C@H]1C[C@@H]2CC[C@@H](C)[C@@](O)(O2)C(=O)C(=O)N2CCCC[C@H]2C(=O)O[C@H]([C@H](C)C[C@@H]2CC[C@@H](OCCO)[C@H](OC)C2)CC(=O)[C@H](C)C=C(C)[C@@H](O)[C@@H](OC)C(=O)[C@H](C)C[C@H](C)/C=C/C=C/C=C1C", "HS 578T breast", "GI50", "< 0.01 µM"],
  ["O=C1NC(=NCCCc2ccccc2)S/C1=C\\c1ccc2ncccc2c1", "HS 578T breast", "GI50", "5.11 µM"],
  ["N#CC1c2ccccc2C=CN1C(=O)N(c1ccccc1)c1ccccc1 (stereo not given)", "HS 578T breast", "GI50", "3.14 µM"],
  ["COC(=O)[C@H]1CCCN1C(=O)[C@H]1CCCN1C(=O)[C@H](Cc1c[nH]c2ccccc12)NC(=S)Nc1cc(C(F)(F)F)cc(C(F)(F)F)c1", "HS 578T breast", "GI50", "6.1 µM"]
]}

Dear reader, for each entry below, please note its GI50.
1. COc1ccc(N=N/C(C(=O)C(F)(F)F)=C(\O)c2ccc(Cl)cc2)cc1
2. CC[C@H](C)[C@H](NC(=O)CN(C)C)C(=O)N(C)[C@H](C[C@@H](OC(C)=O)c1nc(C(=O)NC23CC(C(=O)OC)(C2)C3)cs1)C(C)C
3. COc1cc2cc(Oc3ccc(NC(=O)Nc4ccc(Cl)c(Cl)c4)cc3)c(C)nc2cc1OC
4. O=C(CC(Cl)=C(Cl)Cl)c1cccc(Cl)c1Cl

A.
11.2 µM
0.125 µM
3.54 µM
> 100 µM

Q. Please give measured GI50 of the following entry: CC1=C(Nc2ccc(N3CCN(C)CC3)cc2)C(=O)c2cncnc2C1=O
A. 19.5 µM
